Task for the reader: assign each of the following variants its reported protein stability index.
B1: SPSB1 (parent)
chain: DMRDPTYRPLKQELQGLDYCKPTR

Variants of: B1
TEST_SUMMARY: protein stability index of a GFP-peptide fusion (GPS, HEK-293T) (PSI 1-6); higher = more stable;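 note: lentivirally expressed fusions sorted by FACS into six bins by GFP to DsRed ratio, PSI derived from sequencing read proportions per bin multiplied by bin number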
APPLIED_CONDITIONS: c terminus: a fixed tail appended

// for each variant in input: emit protein stability index
1. K11S
2. L10Y
3. T6P
4. Q12R
5. D1I
6. C20L
7. L17G
8. P9T

Found:
1. 3.76
2. 2.81
3. 3.57
4. 3.18
5. 2.57
6. 2.98
7. 3.51
8. 2.64

// for each variant in input: emit protein stability index
1. G16P
2. T23G
3. L10A
4. Y19Q
5. T6K
6. Y19H

Found:
3.06
4.26
3.54
4.48
3.47
4.18

// for each variant in input: emit protein stability index
1. Q15K
2. E13P
3. M2T
4. D18P
5. E13N

Found:
3.59
3.68
2.64
3.63
3.03
